Give measured IC50 for each item. Keep answers brief.
# System: PANC-1
# PROCEDURE_SUMMARY: Preferential cytotoxic activity against human PANC-1 cells in Dulbecco's modified Eagle's medium
# Format: functional, cell-based

For every item below, please supply its IC50.
1. C=C1CC[C@H]2[C@@H]3CCC4=CC(=O)CC[C@]4(C)[C@H]3CC[C@]12C
2. CCO[C@H]1CCCC2=CC(=O)CC[C@@]21C
3. C[C@]12CCC(=O)C=C1CC[C@@H]1[C@@H]2CC[C@]2(C)C(=C(F)F)CC[C@@H]12
4. C=C1C(=O)C[C@H]2[C@@H]3CC[C@H]4CC(=O)CC[C@]4(C)[C@H]3CC[C@]12C
5. C=C1C(F)(F)C[C@H]2[C@@H]3CCC4=CC(=O)CC[C@]4(C)[C@H]3CC[C@]12C
6. C=C1[C@H](O)C[C@H]2[C@@H]3CCC4=CC(=O)CC[C@]4(C)[C@H]3CC[C@]12C

result:
1: 50 µM; 2: > 100 µM; 3: 91 µM; 4: 3.5 µM; 5: > 100 µM; 6: > 100 µM

For every item below, please supply its IC50.
1. C/C=C1/CC[C@H]2[C@@H]3CCC4=CC(=O)CC[C@]4(C)[C@H]3CC[C@]12C
2. CC(=O)O[C@H]1CCCC2=CC(=O)CC[C@@]21C

result:
1: > 100 µM; 2: > 100 µM

From: ChEMBL document CHEMBL5143553
